Collected Ki values appear next to each entry.
Biological target: Bcl-XL/Bak-BH3 (Homo sapiens, UniProt Q07817)
Sequence (Q07817 whole entry): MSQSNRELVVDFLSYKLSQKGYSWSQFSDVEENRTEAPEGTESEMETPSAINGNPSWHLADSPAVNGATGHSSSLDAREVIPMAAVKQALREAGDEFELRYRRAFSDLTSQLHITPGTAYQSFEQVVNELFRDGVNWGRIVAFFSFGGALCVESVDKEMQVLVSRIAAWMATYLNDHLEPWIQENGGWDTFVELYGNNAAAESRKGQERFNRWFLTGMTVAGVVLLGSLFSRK
Details: GST-Bcl-XL, fluorescein-labeled Bak-BH3 peptide
MEASUREMENT_LABEL: Ki (µM)

SMILES_INPUT: COc1cc(OC)cc(C(=O)NS(=O)(=O)c2ccc(CN(CCSc3ccccc3)Cc3ccc(S(=O)(=O)N=[N+]=[N-])cc3)cc2)c1
TARGET_UNDER_TEST: Bcl-XL/Bak-BH3 (Homo sapiens, UniProt Q07817)
MEASUREMENT_LABEL: Ki
VAL: 14.6
//
SMILES_INPUT: CC1(C)CCN(c2ccc(C(=O)NS(=O)(=O)c3ccc4ccc(S(=O)(=O)NCCSc5ccccc5)cc4c3)cc2)CC1
TARGET_UNDER_TEST: Bcl-XL/Bak-BH3 (Homo sapiens, UniProt Q07817)
MEASUREMENT_LABEL: Ki
VAL: 11.5
//
SMILES_INPUT: CC1(C)CCN(c2ccc(C(=O)NS(=O)(=O)c3ccc(NCCSc4ccccc4)c([N+](=O)[O-])c3)cc2)CC1
TARGET_UNDER_TEST: Bcl-XL/Bak-BH3 (Homo sapiens, UniProt Q07817)
MEASUREMENT_LABEL: Ki
VAL: 0.0375
//
SMILES_INPUT: [N-]=[N+]=NS(=O)(=O)c1ccc(CN(CCSc2ccccc2)Cc2ccc(S(=O)(=O)NC(=O)c3ccccc3)cc2)cc1
TARGET_UNDER_TEST: Bcl-XL/Bak-BH3 (Homo sapiens, UniProt Q07817)
MEASUREMENT_LABEL: Ki
VAL: 11.6

###

Biological target: Bcl-XL/Bak-BH3 (Homo sapiens, UniProt Q07817)
Details: GST-Bcl-XL, fluorescein-labeled Bak-BH3 peptide

SMILES_INPUT: CC1(C)CCN(c2ccc(C(=O)NS(=O)(=O)c3ccc(NCCSc4ccccc4)c([N+](=O)[O-])c3)cc2)CC1
IC50 [nM]: 106
